TESTED SYSTEM: KLK4 (Homo sapiens, UniProt Q9Y5K2)
Sequence (Q9Y5K2 31-254, species assumed): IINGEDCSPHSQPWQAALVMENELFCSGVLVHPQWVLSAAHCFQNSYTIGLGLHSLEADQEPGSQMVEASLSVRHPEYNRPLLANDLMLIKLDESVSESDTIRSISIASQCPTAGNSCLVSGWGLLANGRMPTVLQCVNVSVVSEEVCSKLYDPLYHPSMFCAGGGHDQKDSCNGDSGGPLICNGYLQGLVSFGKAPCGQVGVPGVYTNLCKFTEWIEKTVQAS
PROCEDURE SUMMARY: KLK4 inhibition (selectivity)
Assay type: biochemical
APPLIED CONDITIONS: read-out: KLK4 pIC50 (converted)
REPORTED ENDPOINT: IC50 (nM)

# example entries with known answers
>  <CHEMICAL STRING>
COc1cccc([C@H](C)NC(=O)[C@@H]2CCN(c3ccc(C(=N)N)cc3)C2)c1

>  <TESTED SYSTEM>
KLK4 (Homo sapiens, UniProt Q9Y5K2)

>  <IC50 [nM]>
1260

$$$$
>  <CHEMICAL STRING>
CC[C@H](NC(=O)[C@H]1CN(c2ccc(C(=N)N)cc2)C(=O)O1)c1cccc2ccccc12

>  <TESTED SYSTEM>
KLK4 (Homo sapiens, UniProt Q9Y5K2)

>  <IC50 [nM]>
158

$$$$

I. COc1cccc([C@H](C)NC(=O)[C@H]2CN(c3ccc(C(=N)N)cc3)C(=O)O2)c1
II. C[C@H](NC(=O)[C@H]1CN(c2ccc(C(=N)N)cc2)C(=O)O1)c1cccc2ccccc12
Between the entries labelled I and II , which has a larger IC50 value on record? Kindly give the label for the entry you pick.
I

---

TESTED SYSTEM: Human trypsin (Homo sapiens)
Construct: purchased Polymun Scientific
PROCEDURE SUMMARY: Trypsin enzyme inhibition assay
Assay type: biochemical
APPLIED CONDITIONS: read-out: Trypsin pIC50 (converted)
Procedure: Human thrombin was purchased from Biopur. Human trypsin was purchased from Polymun Scientific. Human Factor Xa was purchased from Enzo Life Sciences. […] Fluorescence intensity was then read at ex/em 485/535 following incubation for 1 h at room temperature (thrombin and factor Xa) or 20 min (trypsin).
REPORTED ENDPOINT: IC50 (µM)

>  <CHEMICAL STRING>
CC(C)(NC(=O)[C@H]1CN(c2ccc(C(=N)N)cc2)C(=O)O1)C(=O)Nc1ccccc1

>  <IC50 (µM)>
6.31

$$$$
>  <CHEMICAL STRING>
CC[C@H](NC(=O)[C@H]1CN(c2ccc(C(=N)N)cc2)C(=O)O1)c1cccc2ccccc12

>  <IC50 (µM)>
0.0631

$$$$
>  <CHEMICAL STRING>
CC[C@H](NC(=O)[C@H]1CN(c2ccc(CN)cc2)C(=O)O1)c1cccc2ccccc12

>  <IC50 (µM)>
5.01

$$$$

A. CC[C@H](NC(=O)[C@H]1CN(c2ccc(C(=N)N)cc2)C(=O)O1)c1cccc(OC)c1
B. COc1cccc([C@H](C)NC(=O)[C@H]2CN(c3ccc(C(=N)N)cc3)C(=O)O2)c1
C. CC[C@H](NC(=O)[C@H]1CN(c2ccc(C(=N)N)nc2)C(=O)O1)c1cccc2ccccc12
Order these by IC50, descending, and give the full ranking. Kindly provide the labels arranged according to the requested ordering.
B, A, C

---

TESTED SYSTEM: KLK6 (Homo sapiens)
PROCEDURE SUMMARY: KLK6 enzymatic inhibition assay (fluorogenic Boc-Phe-Ser-Arg-AMC substrate)
Type: biochemical
Set-up: made in house
APPLIED CONDITIONS: resynthesized stereoisomers, enzymatic inhibition assay (Table 2); read-out: KLK6 pIC50 (converted)
# IC50 values compiled below

# example entries with known answers
>  <CHEMICAL STRING>
COc1cccc([C@@H](C)NC(=O)[C@H]2CN(c3ccc(C(=N)N)cc3)C(=O)O2)c1

>  <RESULT>
> 20 µM

$$$$
>  <CHEMICAL STRING>
COc1cccc([C@@H](C)NC(=O)[C@@H]2CN(c3ccc(C(=N)N)cc3)C(=O)O2)c1

>  <RESULT>
> 20 µM

$$$$
>  <CHEMICAL STRING>
COc1cccc([C@H](C)NC(=O)[C@H]2CN(c3ccc(C(=N)N)cc3)C(=O)O2)c1

>  <RESULT>
0.251 µM

$$$$

Return reported IC50 for target or system KLK6 (Homo sapiens), item `COc1cccc([C@H](C)NC(=O)[C@@H]2CN(c3ccc(C(=N)N)cc3)C(=O)O2)c1` .
> 20 µM

---

TESTED SYSTEM: CYP2D6 (Homo sapiens)
Sequence (P10635 whole entry): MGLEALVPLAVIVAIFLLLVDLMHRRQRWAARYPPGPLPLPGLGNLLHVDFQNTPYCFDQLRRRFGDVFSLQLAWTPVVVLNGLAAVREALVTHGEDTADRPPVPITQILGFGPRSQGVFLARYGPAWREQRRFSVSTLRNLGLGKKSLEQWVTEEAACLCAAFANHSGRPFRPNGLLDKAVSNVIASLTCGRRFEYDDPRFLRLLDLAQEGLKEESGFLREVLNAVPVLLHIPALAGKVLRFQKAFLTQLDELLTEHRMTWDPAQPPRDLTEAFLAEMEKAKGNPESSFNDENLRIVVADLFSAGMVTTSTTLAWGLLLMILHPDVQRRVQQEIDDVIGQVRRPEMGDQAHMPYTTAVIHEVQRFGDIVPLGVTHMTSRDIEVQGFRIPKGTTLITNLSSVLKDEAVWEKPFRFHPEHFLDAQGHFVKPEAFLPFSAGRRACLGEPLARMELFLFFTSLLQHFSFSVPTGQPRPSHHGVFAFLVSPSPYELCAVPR
pIC50: −log10 of the molar value.
REPORTED ENDPOINT: pIC50

Return reported pIC50 for target or system CYP2D6 (Homo sapiens), item `CC[C@H](NC(=O)[C@H]1CN(c2ccc(C(=N)N)cc2)C(=O)O1)c1cccc2ccccc12` .
< 5.00

---

TESTED SYSTEM: Human trypsin (Homo sapiens, UniProt P07477)
Construct: purchased Polymun Scientific
PROCEDURE SUMMARY: Trypsin enzyme inhibition assay
Assay type: biochemical
APPLIED CONDITIONS: read-out: Trypsin pIC50 (converted)
REPORTED ENDPOINT: IC50 (µM)

# example entries with known answers
>  <COMPOUND>
CC[C@H](NC(=O)[C@H]1CN(c2ccc(C(=N)N)cc2)C(=O)O1)c1ccnc2ccccc12

>  <ENDPOINT UNIT>
µM

>  <QUANTITATIVE READOUT>
6.31

$$$$
>  <COMPOUND>
COc1cccc([C@H](C)NC(=O)[C@@H]2CCN(c3ccc(C(=N)N)cc3)C2)c1

>  <ENDPOINT UNIT>
µM

>  <QUANTITATIVE READOUT>
5.01

$$$$
>  <COMPOUND>
C[C@H](NC(=O)[C@H]1CN(c2ccc(C(=N)N)cc2)C(=O)O1)c1ccc2ccccc2c1

>  <ENDPOINT UNIT>
µM

>  <QUANTITATIVE READOUT>
3.98

$$$$

P. COc1cccc(C(C)NC(=O)C2CC(=O)N(c3ccc(C(=N)N)cc3)C2)c1 (centres unmarked)
Q. C[C@H](NC(=O)[C@H]1CN(c2ccc(C(=N)N)cc2)C(=O)O1)c1cccc2ccccc12
Between the entries labelled P and Q , which has a larger IC50 value on record? Kindly give the label for the entry you pick.
P

---

TESTED SYSTEM: UniProtKB P05177
Sequence (P05177 whole entry): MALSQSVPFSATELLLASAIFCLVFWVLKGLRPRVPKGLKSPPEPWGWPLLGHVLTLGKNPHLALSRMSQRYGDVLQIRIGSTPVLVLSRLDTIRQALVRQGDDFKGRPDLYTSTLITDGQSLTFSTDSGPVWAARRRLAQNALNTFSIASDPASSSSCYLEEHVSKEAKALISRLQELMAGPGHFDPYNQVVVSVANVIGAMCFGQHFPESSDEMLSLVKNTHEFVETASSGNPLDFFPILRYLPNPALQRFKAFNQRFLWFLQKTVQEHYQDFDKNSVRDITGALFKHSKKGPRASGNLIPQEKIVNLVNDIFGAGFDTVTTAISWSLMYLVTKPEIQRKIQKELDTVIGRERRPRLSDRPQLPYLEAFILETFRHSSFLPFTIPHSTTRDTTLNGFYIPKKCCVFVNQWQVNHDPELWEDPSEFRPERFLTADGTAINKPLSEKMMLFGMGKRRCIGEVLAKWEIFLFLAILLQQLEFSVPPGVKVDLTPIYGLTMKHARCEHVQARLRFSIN
REPORTED ENDPOINT: IC50

Return IC50 for the following molecule: CC[C@H](NC(=O)[C@H]1CN(c2ccc(C(=N)N)cc2)C(=O)O1)c1cccc2ccccc12 [Compound 32]
> 10 µM

---

PROCEDURE SUMMARY: Plasma stability assay
Format: in vitro ADME, mouse
APPLIED CONDITIONS: pH 7.4; mouse plasma, 37 °C; read-out: Mouse Plasma Stability (t1/2)
REPORTED ENDPOINT: half-life at 10 μM

Return half-life at 10 μM for the following compound: `CC[C@H](NC(=O)[C@H]1CN(c2ccc(C(=N)N)cc2)C(=O)O1)c1cccc2ccccc12`
> 3 h

---

TESTED SYSTEM: KLK6 (Homo sapiens)
PROCEDURE SUMMARY: SPR binding assay (Biacore T200, KLK6 immobilized on CM5 chip)
APPLIED CONDITIONS: read-out: KLK6 pKD (converted)
REPORTED ENDPOINT: Kd (µM)

1. CCOC(=O)C[S+]([O-])CC1CN(c2ccc(C(=N)N)cc2)C(=O)O1 (stereo not shown)
2. CCN(CC)C(=O)c1cccc(OCC2CN(c3ccc(C(=N)N)cc3)C(=O)O2)c1 (stereo not shown)
3. N=C(N)c1ccc(N2CC(CC(=O)NCc3ccccc3C(F)(F)F)OC2=O)cc1 (stereo not shown)
4. COc1cccc([C@H](C)NC(=O)[C@H]2CN(c3ccc(C(=N)N)cc3)C(=O)O2)c1
Using measured Kd, arrange the compounds from above in descending sequence. Kindly provide the labels arranged according to the requested ordering.
1, 3, 2, 4

---

TESTED SYSTEM: CYP3A4 (Homo sapiens, UniProt P08684)
Sequence (P08684 whole entry): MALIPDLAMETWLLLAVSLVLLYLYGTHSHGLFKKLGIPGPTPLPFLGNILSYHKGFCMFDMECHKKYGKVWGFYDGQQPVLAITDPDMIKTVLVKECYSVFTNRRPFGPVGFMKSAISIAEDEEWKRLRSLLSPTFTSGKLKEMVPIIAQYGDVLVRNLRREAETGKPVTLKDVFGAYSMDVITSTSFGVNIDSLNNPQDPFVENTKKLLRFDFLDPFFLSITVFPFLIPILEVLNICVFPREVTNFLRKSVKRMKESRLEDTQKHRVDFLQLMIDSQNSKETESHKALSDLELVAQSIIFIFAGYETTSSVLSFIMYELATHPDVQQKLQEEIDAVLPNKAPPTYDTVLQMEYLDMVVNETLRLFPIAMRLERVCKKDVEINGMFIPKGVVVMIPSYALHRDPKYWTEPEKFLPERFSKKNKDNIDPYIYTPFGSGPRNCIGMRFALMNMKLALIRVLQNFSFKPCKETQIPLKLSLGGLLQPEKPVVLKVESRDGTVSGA
REPORTED ENDPOINT: IC50 (µM)
# unit: µM | format: bare number

Return IC50 for the following compound: CC[C@H](NC(=O)[C@H]1CN(c2ccc(C(=N)N)cc2)C(=O)O1)c1cccc2ccccc12 [Compound 32]
4.8

---

TESTED SYSTEM: UniProt:Q92876
PROCEDURE SUMMARY: KLK6 enzymatic inhibition assay (fluorogenic Boc-Phe-Ser-Arg-AMC substrate)
Format: biochemical
Parameters: made in house
APPLIED CONDITIONS: LipE=pIC50 – logP (KLK6 pIC50, ALogP)
REPORTED ENDPOINT: LipE

>  <CHEMICAL STRING>
CC(C)(NC(=O)[C@H]1CN(c2ccc(C(=N)N)cc2)C(=O)O1)C(=O)Nc1ccccc1

>  <QUANTITATIVE READOUT>
6.20

$$$$
>  <CHEMICAL STRING>
CC[C@H](NC(=O)[C@H]1CN(c2ccc(C(=N)N)cc2)C(=O)O1)c1cccc(OC)c1

>  <QUANTITATIVE READOUT>
5.16

$$$$
>  <CHEMICAL STRING>
COc1cccc([C@H](C)NC(=O)[C@H]2CN(c3ccc(C(=N)N)cc3)C(=O)O2)c1

>  <QUANTITATIVE READOUT>
4.79

$$$$
>  <CHEMICAL STRING>
CC[C@H](NC(=O)[C@H]1CN(c2ccc(C(=N)N)nc2)C(=O)O1)c1cccc2ccccc12

>  <QUANTITATIVE READOUT>
5.76

$$$$
